experimentSummary: Test for initiator properties: photopolymerisation of HDDA with the acrylimide added as initiator
measurementConditions: time to exotherm maximum (maximum polymerisation rate); approx. 6 mol-% imido groups in HDDA; 250-450 nm, 900 mW/cm^2
measuredParameter: tmax

Previously resolved entries follow.
compound	tmax
C=CC(=O)N(CCCCCCCCCCCCN(C(=O)C=C)C(=O)C=C)C(=O)C=C [[19], N,N'-(1,12-Dodecylen)bisacrylimid]	163,9 s
C=CC(=O)N(CC1CCCC(CN(C(=O)C=C)C(=O)C=C)C1)C(=O)C=C (centres unmarked) [[18]]	167,5 s
C=CC(=O)N(CCC)C(=O)C=C [[12], N-Propylacrylimid]	159,6 s
C=CC(=O)N(CCCCCC)C(=O)C=C [[13], N-Hexylacrylimid]	159,9 s
C=CC(=O)N(CCCCCCN(C(=O)C=C)C(=O)C=C)C(=O)C=C [[16], N,N'-(1,6-Hexylen)bisacrylimid]	162,4 s
C=CC(=O)N(CC(CC)CCCC)C(=O)C=C (centres unmarked) [[14], N-2-Ethylhexylacrylimid]	157,1 s

Enquiry: Requested read-out: tmax. Entry: C=CC(=O)N(CCN(CCN(C(=O)C=C)C(=O)C=C)CCN(C(=O)C=C)C(=O)C=C)C(=O)C=C [[22], Tris(2-acrylimidoethyl)amin]
Return: 182,2 s

Enquiry: Requested read-out: tmax. Entry: C=CC(=O)N(CCC[Si](C)(C)O[Si](C)(C)CCCN(C(=O)C=C)C(=O)C=C)C(=O)C=C [[21]]
Return: 153,0 s

Enquiry: Requested read-out: tmax. Entry: C=CC(=O)N(CCOCCOCCN(C(=O)C=C)C(=O)C=C)C(=O)C=C [[20], N,N'-(3,6-Dioxa-1,8-octylen)bisacrylimid]
Return: 171,2 s

Enquiry: Requested read-out: tmax. Entry: C=CC(=O)N(CCN(CC)CC)C(=O)C=C [[15], N-(2-Diethylaminoethyl)acrylimid]
Return: 160,8 s

Enquiry: Requested read-out: tmax. Entry: C=CC(=O)N(CCC(C)(C)CC(C)CN(C(=O)C=C)C(=O)C=C)C(=O)C=C (centres unmarked) [[17]]
Return: 165,0 s

----------
Form field: DBC (one value per entry).
experimentSummary: Test under self-initiation: irradiation and polymerisation in bulk without additional initiator
measurementConditions: 100 wt-% compound, in bulk, no additional initiator

compound	DBC
C=CC(=O)N(CCN(CCN(C(=O)C=C)C(=O)C=C)CCN(C(=O)C=C)C(=O)C=C)C(=O)C=C [[22], Tris(2-acrylimidoethyl)amin]	73,5%

Enquiry: Requested read-out: DBC. Entry: C=CC(=O)N(CCCCCC)C(=O)C=C [[13], N-Hexylacrylimid]
Return: 92,7%

Enquiry: Requested read-out: DBC. Entry: C=CC(=O)N(CCC[Si](C)(C)O[Si](C)(C)CCCN(C(=O)C=C)C(=O)C=C)C(=O)C=C [[21]]
Return: 80,2%

Enquiry: Requested read-out: DBC. Entry: C=CC(=O)N(CCC(C)(C)CC(C)CN(C(=O)C=C)C(=O)C=C)C(=O)C=C (stereo not shown) [[17]]
Return: 78,9%

Enquiry: Requested read-out: DBC. Entry: C=CC(=O)N(CC(CC)CCCC)C(=O)C=C (stereo not shown) [[14], N-2-Ethylhexylacrylimid]
Return: 89,1%

Enquiry: Requested read-out: DBC. Entry: C=CC(=O)N(CCN(CC)CC)C(=O)C=C [[15], N-(2-Diethylaminoethyl)acrylimid]
Return: 90,3%

Enquiry: Requested read-out: DBC. Entry: C=CC(=O)N(CCC)C(=O)C=C [[12], N-Propylacrylimid]
Return: 95,2%

----------
experimentSummary: Test for initiator properties: photopolymerisation of HDDA with the acrylimide added as initiator
measurementConditions: double bond conversion from heat of polymerisation; approx. 6 mol-% imido groups in HDDA; 250-450 nm, 900 mW/cm^2
Form field: DBC (one value per entry).

compound	DBC
C=CC(=O)N(CCCCCCCCCCCCN(C(=O)C=C)C(=O)C=C)C(=O)C=C [[19], N,N'-(1,12-Dodecylen)bisacrylimid]	76,8%

Enquiry: Requested read-out: DBC. Entry: C=CC(=O)N(CCN(CC)CC)C(=O)C=C [[15], N-(2-Diethylaminoethyl)acrylimid]
Return: 80,2%

Enquiry: Requested read-out: DBC. Entry: C=CC(=O)N(CCC[Si](C)(C)O[Si](C)(C)CCCN(C(=O)C=C)C(=O)C=C)C(=O)C=C [[21]]
Return: 78,2%

----------
experimentSummary: Test under self-initiation: irradiation and polymerisation in bulk without additional initiator
measurementConditions: 100 wt-% compound, in bulk, no additional initiator
Form field: tmax (one value per entry).

Previously resolved entries follow.
compound	tmax
C=CC(=O)N(CCC(C)(C)CC(C)CN(C(=O)C=C)C(=O)C=C)C(=O)C=C (stereo not shown) [[17]]	19,5 s
C=CC(=O)N(CC(CC)CCCC)C(=O)C=C (stereo not shown) [[14], N-2-Ethylhexylacrylimid]	21,8 s
C=CC(=O)N(CCN(CC)CC)C(=O)C=C [[15], N-(2-Diethylaminoethyl)acrylimid]	20,9 s

Please look at the following compound next.
Enquiry: Requested read-out: tmax. Entry: C=CC(=O)N(CCC[Si](C)(C)O[Si](C)(C)CCCN(C(=O)C=C)C(=O)C=C)C(=O)C=C [[21]]
Return: 19,2 s

----------
Form field: DBC (one value per entry).
experimentSummary: Test for initiator properties: photopolymerisation of HDDA with the acrylimide added as initiator
measurementConditions: double bond conversion from heat of polymerisation; approx. 6 mol-% imido groups in HDDA; 250-450 nm, 900 mW/cm^2

molecule	measuredParameter	value
C=CC(=O)N(CCN(CCN(C(=O)C=C)C(=O)C=C)CCN(C(=O)C=C)C(=O)C=C)C(=O)C=C [[22], Tris(2-acrylimidoethyl)amin]	DBC	72,4%
C=CC(=O)N(CCCCCC)C(=O)C=C [[13], N-Hexylacrylimid]	DBC	80,2%
C=CC(=O)N(CC1CCCC(CN(C(=O)C=C)C(=O)C=C)C1)C(=O)C=C (stereo not shown) [[18]]	DBC	73,6%

Please look at the following molecule next.
Enquiry: Requested read-out: DBC. Entry: C=CC(=O)N(CCCCCCN(C(=O)C=C)C(=O)C=C)C(=O)C=C [[16], N,N'-(1,6-Hexylen)bisacrylimid]
Return: 75,7%
